Assay: NCI Yeast Anticancer Drug Screen. Data for the mlh1 rad18 strain (AID 175)
Conditions: S. cerevisiae mlh1 rad18 strain growth inhibition; at 50.0 µM; active compounds read high
About 79,000 compounds went through this panel and 15% of them were active in at least one assay; those are over-represented in the sample as a whole.
Classification scheme (growth inhibition): low bin: < -10%; mid bin: ≥ -10% and < 10%; high bin: ≥ 10%

Exercise: Exam item: assign CC1CCOC2(CCCCC2)O1 (centres undefined) to the correct category.
Solution: high bin

Exercise: Lookup Cc1nc(C)c(N2CCN(Cc3ccccc3)CC2)c(=O)[nH]1
Solution: low bin

Exercise: Lookup COCCCNC1=C(C#N)C(=O)NC(c2cccs2)S1 (centres undefined)
Solution: low bin

Exercise: Lookup COc1cc(C)c(C#N)c(OC)n1
Solution: high bin

Exercise: Lookup NCCSCCC(=O)O
Solution: low bin

Exercise: Lookup CSc1ncc(C=O)n1Cc1ccccc1
Solution: mid bin

Exercise: Lookup CC1(C)Cc2ccccc2C(C)(Cl)C(=O)N1 (centres undefined)
Solution: high bin

Exercise: Lookup COCCCC12C=C(OC)C(=O)C=C1OC(c1cc(OC)c(OC)c(OC)c1)C2C (centres undefined)
Solution: low bin

Exercise: Lookup Nc1ccc(Cl)cc1C(=O)N1CCN(c2ccc([N+](=O)[O-])cn2)CC1
Solution: high bin

Exercise: Lookup N#CCCCCCCC(N)=O
Solution: low bin

Exercise: Lookup Nc1cn[nH]c(=O)n1
Solution: mid bin

Exercise: Lookup O=C(Nc1cccc(Cl)c1)c1cc2cc(N=Nc3ccc(Br)cc3)ccc2oc1=O
Solution: high bin

Exercise: Lookup O=C(c1ccc(Cl)cc1)c1cc([N+](=O)[O-])cc([N+](=O)[O-])c1
Solution: mid bin

Exercise: Lookup CN(C)c1ccc(Cc2ccc(N(C)C)c3cccnc23)c2ncccc12
Solution: mid bin

----------
For each record, write down the corresponding growth inhibition.
Experiment: NCI Yeast Anticancer Drug Screen. Data for the mec2-1 strain (AID 157)
Conditions: S. cerevisiae mec2-1 strain, at 50.0 µM, active compounds read high
This is part of a sample that, as a whole, favours compounds with a hit. Of some 79,000 tested, about 15% had one in any assay. The source made the active and inactive calls. No stated cut-off is given here; in the data, active means growth inhibition above about 70%; inactive means the rest.

Exercise: For the compound shown here, CCCCCCCCCCCCCCCCC1Cc2ccccc2C1 , give the reported growth inhibition.
Solution: 8% (inactive)

Exercise: Lookup CSc1nc(N(C)C)c2[nH]c(C)nc2n1
Solution: 9.5% (inactive)

Exercise: Lookup CCCCCC(=O)/C=C/CC(CCCCCCC#N)C(CC(OC)OC)[N+](=O)[O-] (stereo unspecified)
Solution: -24.2% (inactive)

Exercise: Lookup Cc1ccnc(NC(NC(=O)c2ccccc2)(C(F)(F)F)C(F)(F)F)c1
Solution: 3.5% (inactive)

Exercise: Lookup O=C(Nc1ccc(Cl)cc1)Nc1nnc(-c2cc([N+](=O)[O-])cc([N+](=O)[O-])c2)o1
Solution: 20.8% (inactive)

Exercise: Lookup CC(=O)NCC(=O)c1ccccc1
Solution: -2.4% (inactive)

----------
Test: NCI Yeast Anticancer Drug Screen. Data for the rad50 strain (AID 155);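 also: 0% = growth of vehicle-only cultures of the same strain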
Conditions: S. cerevisiae rad50 strain growth inhibition; at 50.0 µM; active compounds read high
This is part of a sample that, as a whole, favours compounds with a hit. Of some 79,000 tested, about 15% had one in any assay.
For each record, write down the corresponding growth inhibition.
Give just the number in %; leave the unit off.

Exercise: For the compound shown here, COc1cc(C)c(C#N)c(OC)n1 , give the reported growth inhibition.
Solution: 19.4

Exercise: Lookup O=C(O)c1ccc2c3ccc(C(=O)O)c4c(C(=O)O)ccc(c5ccc(C(=O)O)c1c25)c43
Solution: -21.1

Exercise: Lookup CCCCCC[n+]1ccc(C(=O)c2ccccc2)cc1
Solution: 34.9

Exercise: Lookup Cc1c(-c2ccc(Cl)cc2)n[nH]c1-c1[nH]nc(-c2ccc(Cl)cc2)c1C
Solution: -2.3

Exercise: Lookup O=C1C=CC(=O)N1Cc1ccco1
Solution: -3.7

Exercise: Lookup Cc1cc(S(=O)(=O)NC(=NCC(=O)NN)NN)c(S)cc1Cl
Solution: -9.85

Exercise: Lookup O=C(NC(=O)c1ccc(F)c(Cl)c1)NC1CC1
Solution: 6.3

----------
Assay: NCI Yeast Anticancer Drug Screen. Data for the sgs1 mgt1 strain (AID 161);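 also: 0% = growth of cultures given vehicle only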
Settings: S. cerevisiae sgs1 mgt1 strain, at 50.0 µM, active compounds read high
The panel holds about 79,000 compounds, 15% with a hit somewhere; the sample as a whole holds those more often. Calls of active or inactive are those of the source. Rule as the data show it: active = growth inhibition above about 70%; inactive = the rest.
measured.endpoint: growth inhibition

Exercise: For the compound shown here, CCCC(=O)c1ccc2c(c1)CCc1cc(O)ccc1-2 , give the reported growth inhibition.
Solution: 12.3% (inactive)

Exercise: Lookup Cc1ccccc1C=O
Solution: 5.15% (inactive)

Exercise: Lookup COc1ccccc1C1(CBr)OCCO1
Solution: 6.55% (inactive)

----------
Assay: NCI Yeast Anticancer Drug Screen. Data for the rad50 strain (AID 155);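 also: 0% = growth of vehicle-only cultures of the same strain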
Conditions: S. cerevisiae rad50 strain growth inhibition; at 50.0 µM; active compounds read high
This is part of a sample that, as a whole, favours compounds with a hit. Of some 79,000 tested, about 15% had one in any assay.
For each record, write down the corresponding growth inhibition.
Give just the number in %; leave the unit off.

Exercise: For the compound shown here, Cc1ccc2snc(C(=O)O)c2c1[N+](=O)[O-] , give the reported growth inhibition.
Solution: 16.7

Exercise: Lookup CCOC(=O)N1C(c2ccccc2)N(c2ccccc2)C(c2ccccc2)N1C(=O)OCC (stereo not given)
Solution: 4.7

Exercise: Lookup CC(=O)C(C)(C)CCC(C)(C)C(C)=O
Solution: 2.95

Exercise: Lookup [O-][N+]1=C(c2ccccc2)C(c2ccccc2)C(c2ccccc2)O1 (stereo not given)
Solution: -13.4

Exercise: Lookup O=[N+]([O-])c1ccc2c(c1)Cc1cc([N+](=O)[O-])ccc1-2
Solution: -12.3

Exercise: Lookup Cn1c(=O)c2[nH]c(N(CCO)N=O)nc2n(C)c1=O
Solution: -9.25

Exercise: Lookup O=[N+]([O-])C1=C(c2ccccc2)SC(Br)=C(c2ccccc2)S1
Solution: -1.2

Exercise: Lookup CC(=O)SCC(C)CCl (stereo not given)
Solution: -12.4

Exercise: Lookup Cc1c(C)c(C)c(CN2CCC(C)CC2)c(C)c1C
Solution: -2.55

Exercise: Lookup CCN(CC)c1ccc2c(c1)Cc1ccccc1-2
Solution: 25.8

Exercise: Lookup N#CC1=CN(Cc2ccccc2)C(c2ccccc2)C=C1 (stereo not given)
Solution: 23.2

Exercise: Lookup Cc1cc(Cl)ccc1N=Cc1ccc(C=Nc2ccc(Cl)cc2C)cc1
Solution: 14.2

Exercise: Lookup Nc1nnc2nc(CC(=O)Cc3ccccc3)c(CC(=O)Cc3ccccc3)nn12
Solution: 0.3

Exercise: Lookup C/C(=N\Sc1cccc([N+](=O)[O-])c1)c1ccccc1O
Solution: 91.2

Exercise: Lookup Cc1ccnc(N(C)CCN2CCCCC2)c1
Solution: 2.75

Exercise: Lookup CCCCCCCCCCCCCCNC(=O)C(C)O (stereo not given)
Solution: 2

Exercise: Lookup Cc1cccc(/C=C/c2csnn2)n1
Solution: -25.1

Exercise: Lookup CCN(CC)CCC(O)(Cc1ccccc1)c1cccc(Cl)c1 (stereo not given)
Solution: 21.6

Exercise: Lookup CC(C)C(O)(c1ccccc1)C(O)(c1ccccc1)C(C)C (stereo not given)
Solution: 99.5

Exercise: Lookup Oc1cccc(N=Cc2ccccc2O)c1
Solution: 4.3

Exercise: Lookup CCCCCCCCCCO
Solution: -1.6

Exercise: Lookup C/C1=C/C2=CC(C)C[C@@H]2C(=O)[C@]2(C)C(=O)CC(C)(C)[C@H]2CC1=O (stereo not given in full)
Solution: 5.5

Exercise: Lookup CN(C)CCNC(=O)c1ccc(C(=O)NCCN(C)C)c2c(C(=O)NCCN(C)C)ccc(C(=O)NCCN(C)C)c12
Solution: 19.1

Exercise: Lookup CCCC(=O)C(N)CC(C)C (stereo not given)
Solution: -8.2

Exercise: Lookup OCc1ccccc1F
Solution: -42.4

----------
Assay: NCI Yeast Anticancer Drug Screen. Data for the cln2 rad14 strain (AID 165);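 also: 0% = growth equal to vehicle treated cultures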
Conditions: S. cerevisiae cln2 rad14 strain, at 50.0 µM, active compounds read high
This is part of a sample that, as a whole, favours compounds with a hit. Of some 79,000 tested, about 15% had one in any assay.
measured.endpoint: growth inhibition (%)
Give just the number in %; leave the unit off.

Exercise: For the molecule shown here, OC1CCCN(Cc2ccccc2)C1 (configuration not stated) , give the reported growth inhibition.
Solution: 4.5

Exercise: Lookup COc1ccc(C(O)C(O)(c2ccccc2)c2ccc(OC)cc2)cc1 (configuration not stated)
Solution: -19.1

Exercise: Lookup COC(=O)C(CCCCNC(=O)OCc1ccccc1)NC(=O)c1ccc(N(C)C=O)cc1 (configuration not stated)
Solution: 26.6

Exercise: Lookup CC(C)N(CSc1ccc([N+](=O)[O-])cc1)CSc1ccc([N+](=O)[O-])cc1
Solution: -4.1

Exercise: Lookup ClC1CC2CCC1C2 (configuration not stated)
Solution: 7.75

Exercise: Lookup O=C(O)/C=N\Nc1nc2ccccc2[nH]1
Solution: -11.1

Exercise: Lookup CC(=O)/C=c1\[nH]/c(=C\C=C\c2ccccc2)c(=O)n1/C=C1\C(=O)Oc2ccccc2C1=O
Solution: 24.6
